tested on: Plasmodium falciparum; test: Antimalarial activity against Plasmodium falciparum K1 infected in human A-positive type erythrocytes after 72 hrs by SYBR Green I assay; conditions: K1, 72 h
MEASURED ATTRIBUTE: IC50

1. CC(C)(N)CNC(=O)C[C@H]1CC[C@]2(CC1)OO[C@]1(O2)C2CC3CC(C2)CC1C3
2.5 nM

* * *

assay: Binding affinity to Plasmodium falciparum calcium-transporting ATPase
MEASURED ATTRIBUTE: Ki (µM)

1. CC(C)(N)CNC(=O)C[C@H]1CC[C@]2(CC1)OO[C@]1(O2)C2CC3CC(C2)CC1C3
7.9
